# Protocol Details: protein stability index of a GFP-peptide fusion (yeast GPS) (PSI 1-4); higher = more stable; sorted into four equal gates, so the index is relative within each strain
# Measurement Conditions: doa10∆
Provide the recorded protein stability index for the entries that follow.
Numbers only.

Go through the items and report each one's protein stability index.
1. FLNEARDKAGRLAEVNL [RPO21]
2. TNDRLNREAATKEVESN [DIS3]
3. VRKELRGRAVVLMGKNT [RPP0]
4. EHFSDEETYEEKPQFKD [RPO26]

Reply:
[2.05, 2.79, 1.71, 3.51]

Return reported protein stability index values for all items listed beneath this line.
1. QRKKQSDVLRFLQRVRV [RPL15A]
2. VVVAETSPEKKDGGDKP [YAR002W/NUP60]
3. SQVDPITLFVLVSVVEA [FAS2]

Reply:
[1.38, 2.85, 1.44]

---

So I've got a bunch of sequences here, and I need their protein stability index values.
# Protocol Details: protein stability index of a GFP-peptide fusion (yeast GPS) (PSI 1-4); higher = more stable; sorted into four equal gates, so the index is relative within each strain
# Measurement Conditions: pdr5∆
Answers are plain numbers.

State the recorded protein stability index for every item in the following list.
1. ESHIDSRNNTLNVTPSK [SIR4]
2. VKALRNVPGVETANVAS [RPL4A]
3. MKPSEILSLIEEAAGTK [SMC2]
4. NRTFTDPPFRIEEQGWG [TAF14]
5. EVNISSLDAREANFDLI [RPC40]
6. AKAGLTFPVGRVHRLLR [HTA1]
7. CIKKIMENNEPAMAMED [SRB8]
8. QLIAKNVANVSGSTEKA [SIR3]

Reply:
1: 2.62; 2: 3.15; 3: 3.23; 4: 3.24; 5: 3.37; 6: 2.72; 7: 3.15; 8: 3.04

---

Field: protein stability index. Provide a value for each of the sequences that follow.
# Protocol Details: protein stability index of a GFP-peptide fusion (yeast GPS) (PSI 1-4); higher = more stable; sorted into four equal gates, so the index is relative within each strain
# Measurement Conditions: ubr1∆

Consider the reported protein stability index for these sequences:
| Sequence Data | protein stability index |
| --- | --- |
| ELNYFVGCKNLERLTLV [GRR1] | 3.05 |
| SKKNRPTLQVGDLVYAR [RRP40] | 2.46 |
| SLSNPNSTATMQHNPLA [PGD1] | 2.97 |
| TTDSLTKVLQADLPGSY [YMR129W/POM152] | 2.43 |

Hi, could you look up protein stability index for each item in my list?
1. EREIKRRKFDPSSSENV [UBP6]
2. VTIIPLDKIYTRPISSQ [SMC2]
3. PATTSQMAKDVTTFLNW [CYT1]
4. SKFYNMKQPYVFVKKHH [SSN2]
5. LILRDFLNNGEVDSASD [RPN3]
6. QSQLNVTLSQLVSVTST [MED8]
7. ANVDQISFLEPINLKFL [YMR129W/POM152]
8. LLKLTKVFIRESLSLKN [YML103C/NUP188]

Reply:
3.33
1.25
3.31
1.28
3.2
1.3
2.91
1.83

---

# Protocol Details: protein stability index of a GFP-peptide fusion (yeast GPS) (PSI 1-4); higher = more stable; sorted into four equal gates, so the index is relative within each strain
# Measurement Conditions: san1∆
Criterion: protein stability index meeting or surpassing 3. Met: 1 (yes). Not met: 0 (no).

Some solved cases for reference:
| Sequence Data | Assigned Label |
| --- | --- |
| LIETVRQMKDVNAPLPT [RPN2] | 0 (no) |
| ELDAQTLPGDDELDQEI [RPT5] | 1 (yes) |
| LTGTVVSTKMHRTIVIR [RPS11A] | 0 (no) |
| FTIDAKPPISDSVFSFG [YLR335W/NUP2] | 0 (no) |
| NVSENQPWQMDTNNEAD [SNF12] | 1 (yes) |

Query: Is reported protein stability index greater than or equal to 3 here: IYKPLLFEIVSNADTNQ [SRB8]
Reply: 0 (no)

---

Consider the following sequences; for each one, report its protein stability index.
# Protocol Details: protein stability index of a GFP-peptide fusion (yeast GPS) (PSI 1-4); higher = more stable; sorted into four equal gates, so the index is relative within each strain
# Measurement Conditions: pdr5∆

| Sequence Data | protein stability index |
| --- | --- |
| VQVKVLGKYEFSKILPA [ESC2] | 1.99 |
| NLENHFKKSKIDHINEE [SCL1] | 3.16 |

Answer for every listed entry: what is its protein stability index? The entries follow.
1. ANVIKALAFCEIGITQQ [RRP4]
2. FLELTRRADVKTATVKI [RPL38]

Reply:
2
1.77

Fill in protein stability index for each of the 5 sequences listed.
1. SGYGKRKGTREARLPSQ [RPL19A]
2. KASELKLALGIALEGYR [RPN2]
3. DIFGANAASGSNSNVTN [YOR098C/NUP1]
4. KHFIQGGSFGNREEFIN [RPL7A]
5. QGDGLLTKLQKYGAAVR [RPN7]

Reply:
1. 3.29
2. 2.28
3. 1.65
4. 1.86
5. 2.89

Report protein stability index for each item below.
1. LKNLRKKLNFKLCQAFM [YJR042W/NUP85]
2. HVLVGDLIKFSAETLSE [FAS1]
3. ITSNHKSSVPGSAELRN [RPN3]
4. AYELRTKSKEQLASQLV [RPL35A]
5. VFTMKELAQYMKTNVHT [RGR1]

Reply:
2.18
2.78
3.25
3.29
2.84

---

# Protocol Details: protein stability index of a GFP-peptide fusion (yeast GPS) (PSI 1-4); higher = more stable; sorted into four equal gates, so the index is relative within each strain
# Measurement Conditions: san1∆
Property Name: protein stability index
One number for each entry.

| Sequence Data | Property Name | Observed |
| --- | --- | --- |
| IASDGSYVNYRHMALLV [RPO21] | protein stability index | 1.35 |
| KTYKEGINKNEEYRKQL [SMC1] | protein stability index | 2.31 |
| KNLVKVLESRVNARDIP [CSN12] | protein stability index | 2.03 |
| KLAAIVEIIDQKKVLID [RPL14A] | protein stability index | 2.91 |
| MFLEFQSTQTDLEKTER [SMC2] | protein stability index | 2.86 |

Answer for every listed entry: what is its protein stability index? The entries follow.
1. IGVVSLTNGVTEHVRQN [RRP6]
2. SLFELIVPIFQLISAVL [YJL039C/NUP192]
3. VKYMPEQKITEIEDGQD [RPO21]
4. INDRNDRAIRKTCQWYS [DIS3]
5. PDVLLSRVINVVRAASS [RRP6]
6. NTATNALRPSDIFGANA [YOR098C/NUP1]

Reply:
1: 3.32; 2: 1.7; 3: 2.98; 4: 2.98; 5: 1.44; 6: 3.27

---

# Protocol Details: protein stability index of a GFP-peptide fusion (yeast GPS) (PSI 1-4); higher = more stable; sorted into four equal gates, so the index is relative within each strain
# Measurement Conditions: ubr1∆
Property Name: protein stability index
Numbers only.

Consider the reported protein stability index for these sequences:
| Sequence Data | protein stability index |
| --- | --- |
| IKLSLKDKTKNISAEII [SMC4] | 3.11 |
| YVSQIRKHKRVSPNAAP [YAR002W/NUP60] | 2.29 |
| NSAIANEQEEKSEEVKA [RPC37] | 2.62 |
| SLASCLRSTEYSKSFEQ [POP1] | 2.76 |
| TFGKKADVTSNIDSSAQ [YOR098C/NUP1] | 2.57 |
| SLLGGFDENIARDIISH [PCI8] | 2.82 |
| MENDKGQLVELYVPRKC [RPS21A] | 3.25 |
| ANAAKRAEAKAQGVAVQ [RPL21A] | 1.92 |
| RGYFITQEEVELPLEDF [RPB5] | 3.14 |
| KLAAIVEIIDQKKVLID [RPL14A] | 2.73 |

Below is a list of sequences. For each, state its recorded protein stability index.
1. EEAAEESDDDMGFGLFD [RPP1B]
2. VANQTSATFLRIVGSEL [RPT2]
3. LVQQIQKETQKVTKIWS [PRP28]
4. GSKISSNDLDKFFQKKI [YGL172W/NUP49]
5. YRLMIKRLNFSFVGDYM [GRR1]

Reply:
1. 3.23
2. 2.13
3. 2.26
4. 2.27
5. 1.51

State the recorded protein stability index for every item in the following list.
1. NFETEWNLQTLAADDAF [RPB11]
2. SFIFQYYGLVIDLLLLG [PRP8]
3. KTPNRSSTPKFTKKPVT [SIR4]
4. LSSMRFKPSQEPEFHAL [RRI1]
5. LSAADIVAQSEVEVSTR [RPO31]
6. HGQLKLSIQYMIQKVME [RPN5]
7. LLNEWSHNVDELLEHIE [RPN5]
8. DHAIVTSPTMPDYYVSI [RPT2]

Reply:
2.54
1.24
2.94
2.42
2.84
2.84
1.58
2.86

Quick request: protein stability index for each listed item, please.
1. GLFGNKPALGSLGSSST [YGR119C/NUP57]
2. KLLAKELEEQESESERK [SMC2]
3. MINRLLLCALDRKDQDD [RPB2]
4. KRFMNTSQNPQRDAEIS [BRR2]
5. SKRWAQRTLSKSFYSTA [CYT1]
6. HPPFIKYACLAIRKNGQ [SIN4]
7. PHATATEKEPVPAVVDD [SNF6]

Reply:
3.21
3.14
2.97
2.95
2.22
1.42
3.18

src = the supplement of paper PMC9732359
